Assay: in vitro
Details: African green monkey
MEASURED_ATTRIBUTE: CC50 (µM)

COMPOUND: CC(C)CC(=O)c1c(O)c2c(c3c1OC1(O)C(C(=O)C(C)(C)C(=O)C1(C)C)C3C(C)C)OC1=C(C(=O)C(C)(C)C(=O)C1(C)C)C2CC(C)C (centres unmarked) [Callistemontrimer A, callistemontrimer A]
READOUT_UNITS: µM
RESULT_MODIFIER: =
RECORDED_NUMBER: 32.1

COMPOUND: CC(C)CC(=O)c1c(O)cc2c(c1O)C(CC(C)C)C1=C(O2)C(C)(C)C(=O)C(C)(C)C1=O (centres unmarked) [Rhodomyrtone, rhodomyrtone]
READOUT_UNITS: µM
RESULT_MODIFIER: =
RECORDED_NUMBER: 5.11

COMPOUND: NC(=O)c1ncn([C@@H]2O[C@H](CO)[C@@H](O)[C@H]2O)n1 [Ribavirin, ribavirin, reference compound]
READOUT_UNITS: µM
RESULT_MODIFIER: >
RECORDED_NUMBER: 200

COMPOUND: CC(C)CC(=O)c1c(O)cc(O)c2c1OC1=C(C(=O)C(C)(C)C(=O)C1(C)C)C2CC(C)C (centres unmarked) [Rhodomyrtosone B, rhodomyrtosone B]
READOUT_UNITS: µM
RESULT_MODIFIER: =
RECORDED_NUMBER: 7.44

COMPOUND: CC(C)CC(=O)c1c(O)c2c(c3c1OC1(O)C(C(=O)C(C)(C)C(=O)C1(C)C)C3CC(C)C)OC1=C(C(=O)C(C)(C)C(=O)C1(C)C)C2CC(C)C (centres unmarked) [Callistemontrimer B, callistemontrimer B]
READOUT_UNITS: µM
RESULT_MODIFIER: =
RECORDED_NUMBER: 16.9

###

System: HTNV-76118 strain
Assay: microbe, parasite or virus in culture
Assay type: cell-based, Hantaan virus (HTNV)
Details: Orthohantavirus hantanense, Vero C1008, 120 h
# key: entry, value: EC50

MOLECULE: CC(C)CC(=O)c1c(O)c2c(c3c1OC1(O)C(C(=O)C(C)(C)C(=O)C1(C)C)C3CC(C)C)OC1=C(C(=O)C(C)(C)C(=O)C1(C)C)C2CC(C)C (centres unmarked) [Callistemontrimer B, callistemontrimer B]
EC50 [µM]: 2.79

MOLECULE: CC(C)CC(=O)c1c(O)cc(O)c2c1OC1=C(C(=O)C(C)(C)C(=O)C1(C)C)C2CC(C)C (centres unmarked) [Rhodomyrtosone B, rhodomyrtosone B]
EC50 [µM]: 2.69

MOLECULE: CC(C)CC(=O)c1c(O)c2c(c3c1OC1(O)C(C(=O)C(C)(C)C(=O)C1(C)C)C3C(C)C)OC1=C(C(=O)C(C)(C)C(=O)C1(C)C)C2CC(C)C (centres unmarked) [Callistemontrimer A, callistemontrimer A]
EC50 [µM]: 4.41

MOLECULE: CC(C)CC(=O)c1c(O)cc2c(c1O)C(CC(C)C)C1=C(O2)C(C)(C)C(=O)C(C)(C)C1=O (centres unmarked) [Rhodomyrtone, rhodomyrtone]
EC50 [µM]: 0.3

MOLECULE: NC(=O)c1ncn([C@@H]2O[C@H](CO)[C@@H](O)[C@H]2O)n1 [Ribavirin, ribavirin, reference compound]
EC50 [µM]: 20.5

###

Tested on: HTNV-76118 strain
Test: microbe, parasite or virus in culture
Format: cell-based, Hantaan virus (HTNV)
Settings: Orthohantavirus hantanense, Vero C1008, read-out: EC50, Post entry
MEASURED_ATTRIBUTE: EC50 (µM)

COMPOUND: NC(=O)c1ncn([C@@H]2O[C@H](CO)[C@@H](O)[C@H]2O)n1 [Ribavirin, ribavirin, reference compound]
READOUT_UNITS: µM
RECORDED_NUMBER: 13.2
--
COMPOUND: CC(C)CC(=O)c1c(O)c2c(c3c1OC1(O)C(C(=O)C(C)(C)C(=O)C1(C)C)C3C(C)C)OC1=C(C(=O)C(C)(C)C(=O)C1(C)C)C2CC(C)C (centres unmarked) [Callistemontrimer A, callistemontrimer A]
READOUT_UNITS: µM
RECORDED_NUMBER: 0.65
